Cited source for all entries: PubChem BioAssay

Examples of molecules with documented composite z-score follow.
TARGET ENTITY: Calmodulin-1 (Homo sapiens) (UniProt P0DP23)
EXPERIMENTAL DETAILS: calcium-bound CALM1 binders on microarrays, profiling panel, artefact control for SMM control-protein annotation, biochemical, small-molecule microarray, Cy5-labelled CALM1, plus calcium (AID 1112);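 further: score merges spot fluorescence with signal to noise from triplicate slides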
CONDITION LABEL: Cy5-CALM1 binding fluorescence, higher = more signal

MOLECULE: CN1C(=O)C2C=CC(C(O)c3ccc(F)cc3)N(NC(=O)OC(C)(C)C)C2C1=O (configuration not stated)
composite z-score: 0.469

MOLECULE: COc1ccc(C(=O)Nc2cccc(CN3C(=O)[C@@]4(O[C@@H](CC(=O)N(CCO)Cc5ccccc5)[C@H]([Si](C)(C)c5ccc(OC)cc5)[C@H]4C)c4ccccc43)c2)cc1
composite z-score: -0.0254

MOLECULE: O=C1OCCC/C=C\[C@H]2OC34C=CCN(c5ccc6ccccc6c5)C(=O)[C@H]3N(CCCO)C(=O)[C@@H]4C12 (some centres not stated)
composite z-score: 0.0048

MOLECULE: COc1ccc([Si](C)(C)[C@H]2[C@H](CCO)O[C@@]3(C(=O)N(Cc4ccc(N5C(=O)c6ccccc6Oc6ccccc65)cc4)c4ccccc43)[C@@H]2C)cc1
composite z-score: 0.908

MOLECULE: O=C1OCCC=C[C@H]2OC34C=CCN(c5ccc(Cl)cc5)C(=O)[C@H]3N(CCCCCCO)C(=O)[C@@H]4C12 (some centres not stated)
composite z-score: -0.593

MOLECULE: CCc1cccc(NC(=O)O[C@H]2[C@H](OC(=O)Nc3ccccc3)[C@H](OC(=O)Nc3ccccc3)[C@@H](OC)O[C@@H]2CO)c1
composite z-score: -0.101

MOLECULE: C=C(CCCC)C(=O)CC[C@H](OC(C)=O)c1ccc(OCCO)cc1
composite z-score: -0.92

###

Examples of molecules with documented composite z-score follow.
EXPERIMENTAL DETAILS: small-molecule binders of probe aNOTCH2, primary screen, biochemical, small-molecule microarray, 635/667 nm fluorescence (AID 1121);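 further: score merges feature fluorescence read at 667 nm with its signal to noise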
CONDITION LABEL: higher = more signal

MOLECULE: CCCCCN1CC=CC23O[C@@H]4C=CCOC(=O)[C@@H]4[C@H]2C(=O)N(CCO)[C@@H]3C1=O (some centres undefined)
composite z-score: -0.14
--
MOLECULE: COc1ccc(NC(=O)O[C@H]2[C@@H]3OC(=O)[C@H](Cc4cccc(Br)c4)C/C=C/C[C@@H](Cc4cccc(Br)c4)C(=O)O[C@H]3[C@@H](OC)O[C@@H]2CO)cc1
composite z-score: 0.683
--
MOLECULE: CC(C)c1ccc(NN2C(C(O)Cc3ccccc3)C=CC3C(=O)N(c4ccccc4)C(=O)C32)cc1 (centres undefined)
composite z-score: 0.0383
--
MOLECULE: COCCCNC(=O)[C@@]1(Sc2ccc(C)cc2)CC(=O)N(Cc2ccccc2Cl)[C@@H]1c1ccc(CO)cc1I
composite z-score: -0.178
--
MOLECULE: NC(=O)N1C(=O)C2C(C1=O)C1C=C(CCCO)C2C(C2CC2)N1Cc1cccc(OC(F)(F)F)c1 (centres undefined)
composite z-score: -0.179
--
MOLECULE: CC(C)(C)OC(=O)CC[C@]1(C(=O)N2CCCCC2)COC(c2ccc(OCCCO)cc2)=N1
composite z-score: 0.0341
--
MOLECULE: COC(=O)[C@@]1(Cc2ccc(OC)cc2)[C@H]2c3cc(C(=O)N4CCCC4)n(Cc4cc(C)n(C)n4)c3C[C@H]2CN1C(=O)c1ccccc1
composite z-score: 0.446
--
MOLECULE: O=C1OCCC=C[C@H]2OC34C=CCN(c5ccc(Cl)cc5)C(=O)[C@H]3N(CCCCCCO)C(=O)[C@@H]4C12 (some centres undefined)
composite z-score: -0.218
--
MOLECULE: COCCOC(=O)N1C(=O)[C@@]2(c3cc(C#CCCO)ccc31)[C@H](C(N)=O)[C@H]1C(=O)O[C@H](c3ccccc3)[C@H](c3ccccc3)N1[C@@H]2c1ccc(OCCO)cc1
composite z-score: 0.0248
--
MOLECULE: COC(=O)[C@@]1(Cc2ccc(OC)cc2)[C@H]2c3cc(C(=O)N4CCCC4)n(Cc4ccc(S(C)(=O)=O)cc4)c3C[C@H]2CN1C(=O)c1ccccc1
composite z-score: 0.36
--
MOLECULE: C=CCN1C(=O)[C@]2(O[C@H](CCO)[C@@H]([Si](C)(C)c3ccc(OC)cc3)[C@@H]2C)c2cc(NC(=O)c3ccc(OC)cc3)ccc21
composite z-score: -0.108
--
MOLECULE: CCOC(=O)C1=C[C@@H](c2ccccc2)N(S(=O)(=O)c2ccc(C)cc2)[C@H]1c1ccccc1
composite z-score: -0.022
--
MOLECULE: C=CCN1C(=O)[C@]2(O[C@H](CCO)[C@@H]([Si](C)(C)c3ccc(OC)cc3)[C@@H]2C)c2cc(N3C(=O)COc4ccccc43)ccc21
composite z-score: -0.175
--
MOLECULE: C=C(/C(=C/C[C@H](OC(=O)c1ccncc1)c1cccc(OCCO)c1)c1cnc2ccccc2c1)C(C)C
composite z-score: -0.0264
--
MOLECULE: C=CCNC(=O)[C@@H]1[C@H]2C(=O)O[C@H](c3ccccc3)[C@H](c3ccccc3)N2[C@H](c2ccc(O)cc2)[C@@]12C(=O)N(C(=O)OCCOC)c1ccc(C#CCCO)cc12
composite z-score: -0.0191
--
MOLECULE: C=C/C=C/[C@@H]1C(=C)CN([C@@H](Cc2ccccc2)C(=O)OC)[C@H]1[C@@H](O)Cc1ccccc1
composite z-score: -0.115
--
MOLECULE: O=c1cccc(-c2ccco2)o1
composite z-score: -0.127
--
MOLECULE: CCCC=C(CCC)[C@@H](NS(=O)(=O)c1cccc2cccnc12)c1ccc(-c2ccccc2)cc1
composite z-score: -0.0581
--
MOLECULE: C=CCNC(=O)[C@H]1[C@@H]2C(=O)O[C@@H](c3ccccc3)[C@@H](c3ccccc3)N2[C@@H](c2ccc(OCCO)cc2)[C@]12C(=O)N(C(=O)OCCOC)c1ccc(C#Cc3ccc(OC)cc3)cc12
composite z-score: -0.0995
--
MOLECULE: CCOC(=O)C[C@H]1[C@H](OC(=O)c2ccccc2-c2ccccc2)[C@@H](NC(=O)c2ccccc2)c2cc(OCCCO)ccc2N1C(=O)c1ccccc1
composite z-score: -0.019
--
MOLECULE: O=C1[C@@]23C=C(Br)[C@H](C[C@@H]2COC3)[C@@]12CO2
composite z-score: -0.153
--
MOLECULE: CN(C)C(=O)[C@]1(CCS(=O)(=O)c2ccccc2)N=C(c2ccc(OCCCO)cc2)O[C@@H]1c1ccccc1
composite z-score: -0.0676
--
MOLECULE: CCOC(=O)C[C@H]1[C@H](OC(=O)c2ccccc2-c2ccccc2)[C@@H](NC(=O)c2ccc3ccccc3n2)c2cc(OCCCO)ccc2N1C(=O)c1ccccc1
composite z-score: -0.14
--
MOLECULE: O=C(N1CCOCC1)[C@@]1(CCS(=O)(=O)c2ccccc2)N=C(c2ccc(OCCCO)cc2)O[C@H]1c1ccccc1
composite z-score: 0.0228
--
MOLECULE: CN1C(=O)C2C(C1=O)C1C=C(CCCO)C2C(c2cccs2)N1Cc1cc2c(cc1Br)OCO2 (centres undefined)
composite z-score: -0.144
--
MOLECULE: CC(C)C[C@@H]1NC(=O)[C@@H]2C[C@H](C(=O)NCCCCCC[N+](C)(C)C)[C@H](c3cccc(OCCO)c3)N2C1=O
composite z-score: -0.128
--
MOLECULE: Cc1ccc(S[C@]2(C(=O)NCC(C)C)CC(=O)N(C3Cc4ccccc4C3)[C@@H]2c2ccc(CO)cc2I)cc1
composite z-score: -0.188
--
MOLECULE: COc1ccc(C#Cc2ccc3c(c2)[C@]2(C(=O)N3)[C@H](c3ccc(OCCO)cc3)N3[C@H](c4ccccc4)[C@H](c4ccccc4)OC(=O)[C@H]3[C@@H]2C(=O)N2CCc3cc(OC)c(OC)cc3C2)cc1
composite z-score: -0.23
--
MOLECULE: C#C[C@@H](CC)O[Si](C#CCCCC#N)(C(C)C)C(C)C
composite z-score: -0.174

###

Examples of compounds with documented z-score follow.
EXPERIMENTAL DETAILS: E. coli growth modulation, two-sided OD650, primary screen, E. coli filamentation project, strain DRC41, 24 h (AID 1093);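 further: MC1000 strain lacking acrAB efflux and sulA so SOS filamentation is blocked; test concentration not given here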
CONDITION LABEL: OD650, 24 h, higher = more signal, called active from +8 up or from −8 down

CHEMICAL STRUCTURE: COc1ccc([Si](C)(C)[C@H]2[C@H](CC(=O)N3Cc4ccccc4C[C@H]3CO)O[C@@]3(C(=O)N(Cc4ccc(N5C(=O)c6cccc7cccc5c67)cc4)c4ccccc43)[C@@H]2C)cc1
z-score: 0.489
//
CHEMICAL STRUCTURE: COC(=O)c1c2oc(c1C(=O)OC)C(=O)N1CCC[C@H]1Cn1nncc1CN(Cc1ccccc1)C(=O)N[C@H](CO)CC2
z-score: 1.24
//
CHEMICAL STRUCTURE: Cc1c(NC(=O)/C(C#N)=C/c2ccccc2Cl)c(=O)n(-c2ccccc2)n1C
z-score: 0.245
